# subject.of.test: hTNFR2-SCP3-Fc (human | ectromelia virus) (UniProt P20333)
# assay.procedure: SPR; […], single-cycle; 1:1 Langmuir fit
quantity: Kd

Using the record for human CXCL13 (ligand) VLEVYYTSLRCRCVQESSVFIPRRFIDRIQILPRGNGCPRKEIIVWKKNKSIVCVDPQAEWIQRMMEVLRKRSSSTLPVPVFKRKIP , report its Kd.
21.4 nM
